METRIC_NAME: melting point (°C)

{"CHEMICAL_STRING": "CN(C)CCC1=Cc2ccccc2N(C)c2ccc(Cl)cc21", "melting point [°C]": 82}
{"CHEMICAL_STRING": "CN1CCCN(Cc2c(Cl)ccc(C(=O)C3=C(Sc4ccccc4)CCCC3=O)c2Cl)C1=O", "melting point [°C]": 140}

1. CCOC(=O)c1cn(C)c2cnc3c(F)c(Cl)c(N4CCN(c5ccc(C)c(F)c5)CC4)cc3c2c1=O
2. CCCS(=O)(=O)Oc1ccc(-c2c(C)c(C(=O)NN3CCCCC3)nn2-c2ccc(Cl)cc2Cl)cc1
(Q) Thinking about recorded melting point values, which is higher, 1 or 2 ? Could you answer with the label of the item you picked?
(A) 1
(1: 350 °C, 2: 190 °C)

###

METRIC_NAME: melting point (°C)

I. COc1cc([N+](=O)[O-])ccc1-c1ccccc1
II. O=C(NC(=O)c1ccccc1Cl)Nc1ccc(C(F)(F)F)cc1
(Q) Consider entries I and II . Which has the numerically lower melting point? // respond with label for picked entry
(A) I

###

METRIC_NAME: melting point

Recorded results for 2 compounds are shown here.
{"COMPOUND": "CCCCn1c(O)c(N=Nc2ccc(S(=O)(=O)N(CC(C)O)CC(C)O)cc2)c(C)c(C#N)c1=O (stereo not given)", "melting point": "189 to 190 °C"}
{"COMPOUND": "COc1ccc(OCC(O)CN2CCC(C3Oc4ccccc4Cn4cccc43)CC2)cc1 (stereo not given)", "melting point": "95 to 120 °C"}

(Q) Given `COc1ccc(-c2c(Cl)c(CN3C(=O)CCC3=O)nc3sc4c(c23)CCN(C(=O)C(F)(F)F)C4)cc1` , state its recorded melting point.
(A) 250 to 252 °C

(Q) Can you look up the measured melting point of `COc1ccc(NN=C(Sc2ccc(OC)c(OC)c2)C(C)=O)cc1` for me?
(A) 138 to 141 °C

(Q) Report melting point for CCCc1c(OCC(O)COc2ccc3ccc(C(=O)O)cc3c2CCC)ccc(C(C)=O)c1O (stereo not given) please.
(A) 125 to 126 °C

###

METRIC_NAME: melting point

{"MOLECULE": "CCc1ncc(CCCOc2c(C)cc(-c3noc(C)n3)cc2C)s1", "melting point": "43 to 45 °C"}

(Q) Which melting point value belongs to `O=C1c2ccccc2OCN1CCCCCO[N+](=O)[O-]` ?
(A) 39 to 41 °C

###

METRIC_NAME: melting point

Example entries begin here.
{"MOLECULE": "O=c1[nH]nc(-c2ccc(OC3CCN(C4CCC4)CC3)cc2)c2c1CCC2", "METRIC_NAME": "melting point", "VALUE_REPORTED": "210 to 213 °C"}
{"MOLECULE": "CCOC(=O)C1=CC(=O)CCC1S(=O)(=O)Nc1ccc(F)cc1Cl (stereo not given)", "METRIC_NAME": "melting point", "VALUE_REPORTED": "128 to 130 °C"}
{"MOLECULE": "CN1C(=O)C(C)(C)N=C(c2ccccc2F)c2c(Cl)c(N)c(Cl)c(Cl)c21", "METRIC_NAME": "melting point", "VALUE_REPORTED": "165 to 166 °C"}

--- query ---
(Q) What does the data say about its melting point? Entry: C=C1C(=C)C2OC1C1=C2CC2C(O)C=CC(=O)C2C1 (stereo not given)
(A) 110 °C

###

METRIC_NAME: melting point

Examples from the recorded data:
{"MOLECULE": "COCCO[C@@H]1c2ccn3c(CO)c(C)nc3c2N[C@H](c2ccccc2)[C@H]1O", "melting point": "180 to 183 °C"}
{"MOLECULE": "CNC1=Nc2ccsc2C(c2ccccc2)=NC1", "melting point": "223 to 227 °C"}
{"MOLECULE": "CCOC(=O)c1c(S(=O)c2ccccc2)n(C2CC2)c2c(F)c(F)c(F)cc2c1=O (centres undefined)", "melting point": "190 to 191 °C"}

(Q) Requested read-out: melting point. Entry: `O=C(Nc1cnc(-c2ccccc2)nc1Cl)OCc1ccccc1`
(A) 120 to 121 °C

(Q) What does the record list as melting point for `O=C1C(=CO)C(c2ccccc2[N+](=O)[O-])=NN1c1ccc(Cl)cc1` ?
(A) 155 to 157 °C

(Q) Can you share its melting point? I mean this molecule: `CC[C@H](C)CNC(=O)C[C@H](O)[C@H](CC(C)C)C(=O)OC(C)(C)C`
(A) 83 to 84 °C

(Q) Which measured melting point value corresponds to `CCCc1nn(C)c2c(=O)n(CCCOc3ccc(OC(C)(C)C(=O)O)cc3)c(C)nc12` ?
(A) 158 to 160 °C

(Q) Which measured melting point value corresponds to `COc1ccnc(CSc2nc3cc(OC(F)F)ccc3[nH]2)c1OC` ?
(A) 104 to 108 °C

###

Recorded melting point for the following compounds

Field: example entries. Status: answers known.
{"COMPOUND": "COc1cc(O)cc(Cc2cnc(N)nc2N)c1", "melting point": "246 to 248 °C"}
{"COMPOUND": "CCOC(=O)c1cc2ccc3c4ccccc4ccc3c2n1C", "melting point": "136 to 138 °C"}
{"COMPOUND": "CC(=O)Nc1ccc(F)cc1-c1ccc(Cl)c(Cl)c1", "melting point": "138 to 140 °C"}
{"COMPOUND": "COC=C(C(=O)OC)N(C)c1nc(-c2ccc(Cl)c(Cl)c2)cs1", "melting point": "96 to 98 °C"}
{"COMPOUND": "CCCCCCC(C(=O)O)N1NCc2cc(-c3ccccc3-c3nn[nH]n3)ccc21 (stereo unspecified)", "melting point": "105 to 110 °C"}

(Q) May I ask what melting point has been recorded for `CN1CCN(c2nc3c(c(N4CCOCC4)n2)SCCC3)CC1` ?
(A) 100 °C

(Q) Name the recorded melting point for `Cc1ccc2c(c1)C(=O)N1CCN=C1N2N1CCOCC1` .
(A) 227 to 228 °C

(Q) Please look up its melting point: Nc1ncnc2c1c(-c1ccc(Oc3ccccc3C=O)cc1)cn2C1CCOC1 (stereo unspecified)
(A) 185 to 187 °C

(Q) What melting point value was documented for this compound, `CCCC(=O)Oc1c(-c2ccc(-c3ccccc3)cc2)nc2ccccc2c1C(=O)O` ?
(A) 195 to 196 °C

(Q) Need melting point of `FC(F)(F)c1ccc(Nc2nc3ccccc3o2)cc1` , thanks.
(A) 180 to 182 °C

(Q) If you can, please state the reported melting point value of CC1(C)CCCC2(C)C1CCC(C)(O)C2CCO (stereo unspecified) .
(A) 130 to 132 °C

###

METRIC_NAME: melting point

{"COMPOUND": "CNC(=O)c1nc(C)n2c1CN=C(c1ccccc1)c1cc(Cl)ccc1-2", "melting point": "260 to 263 °C"}
{"COMPOUND": "COc1ccc(C(=O)Cc2ccc3ccccc3c2)cc1", "melting point": "132 to 134 °C"}
{"COMPOUND": "CS(=O)(=O)c1ccc(-c2cc(C(=O)CCCO)nn2-c2ccccc2)cc1", "melting point": "143 to 145 °C"}
{"COMPOUND": "O=C(O)C1=Cc2cc(S(=O)(=O)NCCc3ccccc3)ccc2OC1C(F)(F)F (stereo unspecified)", "melting point": "187 to 190 °C"}
{"COMPOUND": "CC(=O)C(CCS(C)(=O)=O)(CCS(C)(=O)=O)C(C)=O", "melting point": "162 °C"}

(Q) # melting point lookup, item `COc1cccc(-c2c3c(cc4ccc(O)cc24)-c2ccc(O)cc2CO3)c1`
(A) 220 to 223 °C

(Q) Look up melting point: CNN1c2c(cc(Oc3ccc(F)cc3F)c(=O)n2NC)C=NC1S(=O)Cc1ccccc1 (stereo unspecified)
(A) 80.5 to 89.9 °C

(Q) melting point for `c1csc(Cn2ccnc2-c2ncc[nH]2)c1` ?
(A) 153 to 155 °C

(Q) Consider the compound shown here: CC(C)(C)OC(=O)NC1CCN(Cc2ccccc2)C1 (stereo unspecified) What is its recorded melting point?
(A) 114 to 115 °C

(Q) Name the reported melting point value associated with the compound `NCC1CN(c2cc3c(cc2F)c(=O)c(C(=O)O)cn3C2CC2)C1`
(A) 205 to 211 °C

(Q) GET /values?readout=melting point&item= `O=C(N1CCOc2ccccc21)C(F)(F)F`
(A) 58 to 60 °C

(Q) Form field: reported melting point of COC1OCC[C@@H]1NC(=O)[C@H](CC(C)C)NC(=O)[C@H](CC(C)C)NC(=O)[C@H](CC(C)C)NC(=O)c1ccc2c(c1)Nc1ccccc1S2 (stereo partly specified)
(A) 164 to 165 °C

(Q) Entry `C[Si](C)(C)CCOCn1ccc(=O)[nH]c1=O` has what melting point?
(A) 120 to 122 °C

(Q) I have this compound here, `Cc1nnc(-c2cccc(I)c2)s1` , and I need its recorded melting point.
(A) 86 to 89 °C

(Q) // returns reported melting point for input `COc1ccc(N2CCN(n3ccnc3)CC2)cc1`
(A) 159 °C

(Q) I have this compound here, CC12CCC3c4cc(O)c(O)cc4CCC3C1CCC2O (stereo unspecified) , and I need its recorded melting point.
(A) 181 to 183 °C

(Q) So what's the measured melting point for this one? N#Cc1cccc2c1COc1ccc(OCc3ccc4ccc(Cl)cc4n3)cc1C2SCCC(=O)O (stereo unspecified)
(A) 193 to 195 °C

(Q) State the recorded melting point for this entry: `O=C(CCCCCNC(=O)CCc1ccccc1)NO`
(A) 107 °C

(Q) For `Cc1ccc(-c2nc3sc4ccccc4n3c2CC(=O)N(C)C)s1` , what is its reported melting point?
(A) 216 to 218 °C

(Q) Requested field: melting point. Item: `CCSc1cc(C)nc(SCC)c1NC(=O)CSc1nc2cccc(S(C)(=O)=O)c2o1`
(A) 159 to 162 °C

(Q) Entry under review: `O=C1CSC(=S)N1c1cccc(C(F)(F)F)c1` . Reported melting point?
(A) 177 to 178 °C
